test system: DU-145; experiment: NCI tumour cell line growth inhibition, 48 h
Calls of active or inactive are those of the source. No stated cut-off is given here; in the data, active = GI50 up to about 1.1 µM and inactive = higher.
reported property: GI50

Illustrative cases are given below, each with its answer.
Please report the recorded GI50 for "Cc1ccc(C(=O)OC[C@H]2CC[C@@H](n3cc(N(C)C4CCCCC4)c(=O)[nH]c3=O)O2)cc1" . > 100 µM (inactive)

So what does the record say about GI50 for CCOP(=O)(OCC)C1CC(O)C(=O)N1 (stereo not drawn) ? > 100 µM (inactive)

Any idea what GI50 was measured for Cc1ccc([N+](=O)[O-])cc1S(=O)(=O)Nc1ccc(C2=NN(C(=O)c3ccccc3)C(c3ccccc3O)C2)cc1 (stereo not drawn) ? 20.2 µM (inactive)

So what's the measured GI50 for this one? "Cc1cc(C)nc(NS(=O)(=O)c2ccc(NC(=O)c3ccc4nc5ccccc5c(Nc5ccc(S(N)(=O)=O)cc5)c4c3)cc2)n1" > 100 µM (inactive)

// GI50 lookup, key: CC(=O)NC1C(OCc2ccccc2)OC(CO)C(O)C1OC(C)C(=O)NC(C(=O)NC(CCC(=O)NCCCC(=O)Nc1ccc2c(c1)CN1C(=O)c3ccccc3C1=N2)C(N)=O)C(C)C (stereo not drawn) > 100 µM (inactive)

Others:
Given the compound C=C(Br)C(Br)(CCl)CCC(Cl)C(C)C.C=C(Cl)C(Br)(CCl)CCC(Cl)C(C)C (stereo not drawn) , what is its reported GI50? 1.65 µM (inactive)

# get_value(readout='GI50', item= "OC(CC(CC(O)(C(F)(F)F)C(F)(F)F)=NN=C(CC(O)(C(F)(F)F)C(F)(F)F)CC(O)(C(F)(F)F)C(F)(F)F)(C(F)(F)F)C(F)(F)F" ) > 10 µM (inactive)

Form field: reported GI50 of CC1(C)CCCCCC(C)(CCCCCCCCCCCO)C1=O (stereo not drawn) 17.7 µM (inactive)

---

Each entry below lists one item and its recorded GI50 value.
test system: A498; experiment: NCI tumour cell line growth inhibition, 48 h
The source made the active and inactive calls. Cut-off read from the data, not from the text of the source: active = GI50 up to about 1.1 µM and inactive = higher.

Requested read-out GI50, target or system A498, entry "Cc1cc(N(CCC#N)CCC#N)ccc1/C=C\C(=O)Nc1ccccc1" > 100 µM (inactive)

API: value(readout=GI50, system=A498) for record "CCOC(=O)C1=C(C)Nc2ccccc2S1" > 100 µM (inactive)

I'm curious: which GI50 was measured for COc1ccc(C2COc3cc(O)c(O)cc3C2)cc1 (configuration not stated) tested on A498? 9.84 µM (inactive)

Tell me reported GI50 for C=C1C(=O)O[C@@H]2C[C@@H](C)[C@@H]3[C@@H](OC4OC(COC(C)=O)C(O)C(O)C4O)CC(=O)[C@@]3(C)C[C@H]12 (some centres not stated) , tested with A498. 15.5 µM (inactive)

Write down the reported GI50 of "C[C@]12CCC(=O)[C@@H](CCC3=CC(=O)C=CC3=O)[C@@H]1CCC2=O" , test system: A498. 17.5 µM (inactive)

Quick check: GI50 on A498, item "c1ccc(CSC(SCc2ccccc2)c2cccc3ccccc23)cc1" ? > 10 µM (inactive)

---

test system: SW-620; assay: NCI tumour cell line growth inhibition, 48 h
The source made the active and inactive calls. Cut-off read from the data, not from the text of the source: active = GI50 up to about 1.1 µM and inactive = higher.
Pick one and only one: True for active, False for inactive

Lab log entry: CCCCCCCCCCCCCCCCCCOCC(COCCOCC[N+]1(CCCCCC(=O)[O-])CCCC1)Oc1ncccn1 (stereo unspecified) — outcome as called in the assay? False

I'd appreciate the recorded outcome for "CC1=CC(=O)c2ccc3c4ccccc4n(C)c3c2C1=O" from this test. False

Further cases:
Per the records of this test, what outcome belongs to O=C(CC1S/C(=N\c2ccccc2Cl)NC1=O)Nc1ccc(Cl)cc1 (stereo unspecified) ? False

Field: outcome | Entry: C=C1CC(C)(COc2ccc3c(C)cc(=O)oc3c2)OC1=O (stereo unspecified) True

# lookup: test call for "ClCCC[Si]12OCCN(CCO1)CCO2" False

Test call for this molecule, please: CCCNCC(O)CNc1ccc(NCC(O)CNCCC)c2c1C(=O)c1ccccc1C2=O (stereo unspecified) False

Could you please tell me the result logged for COc1ccc(C2COc3cc(O)c(O)cc3C2)cc1 (stereo unspecified) in this assay? False

# lookup: test call for CN(C)c1ccc(C2SCC(=O)N2NS(=O)(=O)c2cccc(C(=O)O)c2)cc1 (stereo unspecified) False

What was the test verdict on "Cn1cnc(CCc2ccccc2)n1" ? False

Which result was noted for this molecule in the test: "O=[N+]([O-])c1cc([N+](=O)[O-])c(Nn2c3ccccc3c3ccccc32)c([N+](=O)[O-])c1" False

Hi team, can someone confirm the assay call for "NC(=O)c1ccc(C(=O)Nc2ccc([As](=O)(O)O)cc2)cc1" ? False

---

system: HCT-15
reported property: log10 GI50 (log10 of the value in µM)
# values: log10(GI50), units µM

What log10 GI50 appears in the records for this compound with HCT-15? CC(=O)OCC1OC(n2c(-c3ccc(Cl)cc3)cc(-c3ccccc3)c(C#N)c2=S)C(OC(C)=O)C(OC(C)=O)C1OC(C)=O (stereo unspecified) 1.48

Next:
// lookup log10 GI50 | system=HCT-15 | key= C=C1CC(COc2ccc3c(C)cc(=O)oc3c2)(c2ccccc2)OC1=O (stereo unspecified) 0.24

So what log10 GI50 did O=C(CC(=O)N1N=C(c2ccccc2)C(/N=N/c2ccc(S(=O)(=O)CCOS(=O)(=O)O)cc2)C1=O)Nc1ccc(Cl)cc1 (stereo unspecified) get with HCT-15? 0.94

Hi! What's the reported log10 GI50 for CC1(C)COC2C(N(Cc3ccccc3)Cc3ccccc3)C(=O)N21 (stereo unspecified) on HCT-15? 1.60

Recall the recorded log10 GI50 for "C(=N\c1ccc(-c2nc3ccccc3s2)cc1)/c1ccco1" with HCT-15 and state it. 1.71

Query the reported log10 GI50 for HCT-15; item: "COc1ccc(-c2cn3c(n2)sc2cc(C)ccc23)cc1" 1.59

Lab request: please report log10 GI50 under test system HCT-15 for "COc1cc(/C=C2\N=C(c3ccccc3)N(c3nc4c(OC)ccc(OC)c4s3)C2=O)ccc1O" 1.85

Field: log10 GI50 (HCT-15). Entry: C=C(Cl)C(Cl)(CBr)CCCC(C)(C)Cl (stereo unspecified) 1.42

Reported log10 GI50 for HCT-15, given "S=C(CSc1ccccc1)Nc1cccc2ccccc12" ? 1.68

Any idea what log10 GI50 came out for "Cc1ccc(C(=O)OC[C@H]2CC[C@@H](n3cc(N(C)C4CCCCC4)c(=O)[nH]c3=O)O2)cc1" on HCT-15? 1.39

Lab note: need log10 GI50 for "C/C(=N/O)c1ccc2c(c1)/C(=N/O)c1cc(/C(C)=N/O)ccc1-2" on HCT-15, anyone have it? 1.15

Record lookup: for HCT-15, what log10 GI50 belongs to "O=C(c1cccs1)N(C(=S)OC12CC3CC(CC(C3)C1)C2)c1ccccc1" ? 1.47

Find log10 GI50 (HCT-15) for the entry "CN(C)CCS/C(=N\c1ccccc1)n1cccc1" 1.99

Please state recorded log10 GI50 (tested on HCT-15) of "Cc1c2ccnc(C(N)=O)c2c(C)c2c1[nH]c1ccccc12" 0.61

Find the measured log10 GI50: item COc1c(OC(C)=O)c(OC(C)=O)cc2c1-c1ccc(OC)c(=O)cc1C(NC(C)=O)CC2 (stereo unspecified) , target or system HCT-15. -0.33

Param readout= log10 GI50; system= HCT-15; entry= CC1(C)CC2C=C(C=O)C3(C=O)CC3(C)C2C1 (stereo unspecified) ; returns value. 0.21

// lookup log10 GI50 | system=HCT-15 | key= "COc1cc(NCc2ccc3n2-c2ccccc2OC3)cc(OC)c1OC" 1.48

Item: "Cc1nn(-c2ccccc2)c2nc(N3CCOCC3)nnc12" Test system: HCT-15 Read-out: log10 GI50 Value: ? 1.81

Which measured log10 GI50 belongs to "CCCCC1=C(C(=O)N2CCOCC2)C2(OCCO2)C1=O" , tested on HCT-15? 1.26

Give recorded log10 GI50 with HCT-15 for the following compound: "Cc1ccc(-c2cc(-c3ccc(Cl)cc3)nc(/N=C3\C(=O)N(CN(C)C)c4ccccc43)n2)cc1" 1.61

Field: log10 GI50 (HCT-15). Entry: "Cc1c2ncccc2c(C)c2c1[nH]c1ccc(O)cc12" 0.53

---

Parameter: GI50. Scope: all listed entries.
tested on: CAKI-1; experiment: NCI tumour cell line growth inhibition, 48 h
Activity calls are given as the source filed them. Rule as the data show it: active = GI50 up to about 1.1 µM and inactive = higher.

I'm curious: which GI50 was measured for "CC(=O)OCc1cc2ccccc2nc1C(Br)(Br)Br" tested on CAKI-1? 15.7 µM (inactive)

Hello, I am looking for reported GI50 with CAKI-1 for "CCN(CC)C(=S)SS(=O)(=O)c1ccc(F)cc1" . Could you help? 41 µM (inactive)

Next:
GI50 of "CSc1nc(SC)c2c(C#N)n[nH]c2n1" on CAKI-1? > 100 µM (inactive)
